- System: Escherichia coli TOP10;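 further: peptides expressed intracellularly from a pBAD plasmid library in pooled LB shake-flask culture, induced with 0.3% L-arabinose, DNA abundance read by NGS, three biological replicates, DESeq2 with apeglm shrinkage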
- method notes: shrunken log2 fold change of peptide-encoding DNA abundance (4.5 h post-induction vs induction); higher = less antimicrobial activity (less host growth inhibition)
- experimental context: time post-induction: 4.5 h; library: site-saturation at positions 5, 18, 19, 20
Is shrunken log2 fold change at least 0.05? Then 1. If not, -1.

RRIRMRPPRLPRPRPRPSGIPRP: -1
RRIRWRPPRLPRPRPRPMTSPRP: 1
RRIRSRPPRLPRPRPRPCHFPRP: -1
RRIRTRPPRLPRPRPRPKAVPRP: 1
RRIRQRPPRLPRPRPRPLQMPRP: 1

Exercise: Determine whether this sequence has shrunken log2 fold change no lower than 0.05: RRIRVRPPRLPRPRPRPMWVPRP
Key: 1

Exercise: Determine whether this sequence has shrunken log2 fold change no lower than 0.05: RRIRIRPPRLPRPRPRPDEYPRP
Key: -1

Exercise: Determine whether this sequence has shrunken log2 fold change no lower than 0.05: RRIRIRPPRLPRPRPRPDHKPRP
Key: -1

Exercise: Determine whether this sequence has shrunken log2 fold change no lower than 0.05: RRIRKRPPRLPRPRPRPSRQPRP
Key: 1

Exercise: Determine whether this sequence has shrunken log2 fold change no lower than 0.05: RRIRVRPPRLPRPRPRPNRCPRP
Key: -1

Exercise: Determine whether this sequence has shrunken log2 fold change no lower than 0.05: RRIRMRPPRLPRPRPRPCCYPRP
Key: -1

Exercise: Determine whether this sequence has shrunken log2 fold change no lower than 0.05: RRIRYRPPRLPRPRPRPWCIPRP
Key: -1

Exercise: Determine whether this sequence has shrunken log2 fold change no lower than 0.05: RRIRLRPPRLPRPRPRPDPPPRP
Key: 1

Exercise: Determine whether this sequence has shrunken log2 fold change no lower than 0.05: RRIRTRPPRLPRPRPRPYLFPRP
Key: -1

Exercise: Determine whether this sequence has shrunken log2 fold change no lower than 0.05: RRIRARPPRLPRPRPRPFSHPRP
Key: -1

Exercise: Determine whether this sequence has shrunken log2 fold change no lower than 0.05: RRIRCRPPRLPRPRPRPRLGPRP
Key: 1

Exercise: Determine whether this sequence has shrunken log2 fold change no lower than 0.05: RRIRKRPPRLPRPRPRPTAEPRP
Key: 1

Exercise: Determine whether this sequence has shrunken log2 fold change no lower than 0.05: RRIRIRPPRLPRPRPRPGWFPRP
Key: -1

Exercise: Determine whether this sequence has shrunken log2 fold change no lower than 0.05: RRIRARPPRLPRPRPRPRIFPRP
Key: 1

Exercise: Determine whether this sequence has shrunken log2 fold change no lower than 0.05: RRIRFRPPRLPRPRPRPDLVPRP
Key: -1
